This collection of values is drawn from patent US20190367619A1.

subject.of.test: T1, human galectin-10-His (recombinant human galectin-10 with TEV-cleavable N-terminal His-tag) (human)
T1 construct: SEC-MALLS: dimer in solution; also called Gal10-His; humanGal10-His
T1 chain: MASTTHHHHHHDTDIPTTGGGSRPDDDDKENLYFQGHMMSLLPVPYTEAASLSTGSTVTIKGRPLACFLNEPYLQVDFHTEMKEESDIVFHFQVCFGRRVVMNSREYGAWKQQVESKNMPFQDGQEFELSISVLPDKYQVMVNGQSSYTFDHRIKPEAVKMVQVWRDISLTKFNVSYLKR
assay.remarks: SPR Biacore T3000, scFv-hFc captured by anti-human Fc, galectin-10-His as analyte
Reported Kd values follow for various binders
Express it in nM; write the number only.

Some solved cases for reference:
Request: Recorded Kd for 4G05 scFv-human Fc (Fc fusion, about 100 kDa on SDS-PAGE; also called 4G05 ScFv-hFc; not shown: CH2-CH3 constant domains of human IgG1 (vector pUPEX50)) scFv: QLQVVESGGGLVQTGGSLTLSCTTSGFTFSRYWMIWVRQAPGKGLEWVSSIYNDGGNTYYADSVKGRFTISRDNSENTLYLQMNSLKSEDTAVYYCAKLKAAYYGMDYWGKGTLVTVSSGGGGSGGGGSGGGGSSSALTQPSAVSVSLGQTARITCQGANLGRYYGIWYQQKPGQAPVQVIYGDSNRPSGIPERFSGSSSGGTATLTISGAQAEDEADYYCQSYESSTSPVFGGGTHLTVL , please?
Response: 0.911

Request: // same read-out, input: 6A11 scFv-human Fc (Fc fusion, about 100 kDa on SDS-PAGE; also called 6A11 ScFv-hFc; not shown: CH2-CH3 constant domains of human IgG1 (vector pUPEX50)) scFv: ELQLVESGGGLVQPGGSLRLSCSASGFTFGAYAMNWVRQAPGKGLEWVSGVNSGGGLTSYGESVKGRFTISRDNAKNTLYLQMNRLNPDDTAVYYCAKSKRGAVVAGTGDDYWGQGTQVTVSSGGGGSGGGGSGGGGSSSALTQPSAVSVSLGQTARITCQGGNFGRYYVSWYQQKPGQAPVLVIYKDSERPSGIPERFSGSSSGDTATLTISGAQAEDEADYYCQSGSSSDNAVFGGGTHLTVL
Response: 0.711

Request: Note, next up: 2B11 scFv-human Fc (Fc fusion, about 100 kDa on SDS-PAGE; also called 2B11 ScFv-hFc; not shown: CH2-CH3 constant domains of human IgG1 (vector pUPEX50)) scFv: QVQLQESGPGLVKPSQTLSLTCTVSGGSITTNYYYWSWIRQPPGKGLEWMGAIAYSGSTYYSPSLKSRTSISRDTSKNQFTLQLSSVTPEDTAVYYCARAPYGISREYDYWGQGTQVTVSSGGGGSGGGGSGGGGSHSAVTQPSAVSVSLGQTARITCQGGKFGRYYASWYQQKPGQAPVLVIYKDSERPSGIPERFSGSSSGDTATLSISGAQAEDEADYFCQSGRSSDNAVFGGGTHLTVL
Response: 0.875

Now take the following binder into account.
Request: Any idea what its Kd is? The binder is 1A12 scFv-human Fc (Fc fusion, about 100 kDa on SDS-PAGE; also called 1A12 ScFv-hFc; not shown: CH2-CH3 constant domains of human IgG1 (vector pUPEX50)) scFv: QVQLVESGGGLVQPGGSLRVSCAASGFTFSSYYMSWVRQAPGKGLEWVSAINSGGGSTYYADSVKGRFTISRDNAKNTLYLQMNSLKSEDTAVYYCVQNGGIWSFGSWGQGTQVTVSSGGGGSGGGGSGGGGSSSALTQPSAISVSLGQTARITCQGGNFGYYYVSWYQQKPGQAPVQVIYGDSNRPSGIPERFSGSSSGGTATLTISGAQAEDEADYYCLSYESSDYPVFGGGTHLTVL
Response: 11.7
